- experimental.system: pyrene-labeled F-actin (PFA) (Oryctolagus cuniculus, UniProt P68135)
- Construct: Rabbit skeletal F-actin was prepared as described previously from acetone powder; from tissue; host or cells: rabbit skeletal muscle (acetone powder)
- experimental.protocol: Compound binding to pyrene-labeled F-actin, steady-state fluorescence dose response
- Parameters: species or system rabbit
- assay.setup: 2.5–150 μM compound, 2 μM PFA
metric.name: effect on PFA (pyrene) fluorescence, dose-response

CCCCCNC(=N)N/N=C/c1c[nH]c2ccc(OC)cc12 : minimal effects
COc1ccccc1OCCNCC(O)COc1cccc2[nH]c3ccccc3c12 (stereo not drawn) : minimal effects
c1ccc2c(c1)Nc1ccccc1S2 : minimal effects

* * *

Reported pKd values follow for various compounds
- experimental.system: pyrene-labeled F-actin (PFA) (Oryctolagus cuniculus, UniProt P68135)
- Construct: Rabbit skeletal F-actin was prepared as described previously from acetone powder; from tissue; host or cells: rabbit skeletal muscle (acetone powder)
- experimental.protocol: Compound binding to pyrene-labeled F-actin, steady-state fluorescence dose response
- Parameters: species or system rabbit
- assay.setup: 2 μM PFA, 200-500 μM MgATP; read-out: Kd of compound binding to PFA in the presence of MgATP
In simple prose, pKd is minus the logarithm base ten of a concentration in moles per litre.

OC(c1cc(C(F)(F)F)nc2c(C(F)(F)F)cccc12)C1CCCCN1 (centres unmarked) : 4.05

Next item in the queue.
Value lookup for pKd; key = O=C1c2c(O)ccc(O)c2C(=O)c2c(NCCNCCO)ccc(NCCNCCO)c21
4.61

* * *

- experimental.system: pyrene-labeled F-actin (PFA) (Oryctolagus cuniculus, UniProt P68135)
- Construct: Rabbit skeletal F-actin was prepared as described previously from acetone powder; from tissue; host or cells: rabbit skeletal muscle (acetone powder)
- experimental.protocol: Compound binding to pyrene-labeled F-actin, steady-state fluorescence dose response
- Design: species or system rabbit
metric.name: Kd
Write the numeric value and follow it with the unit.

Value lookup for Kd; key = CC(C)C(=O)Nc1ccc([N+](=O)[O-])c(C(F)(F)F)c1
39.6 µM
